Biological target: SMO (Homo sapiens)
Construct: expressed in transfected cells; host or cells: HEK293
Sequence (Q99835 28-787): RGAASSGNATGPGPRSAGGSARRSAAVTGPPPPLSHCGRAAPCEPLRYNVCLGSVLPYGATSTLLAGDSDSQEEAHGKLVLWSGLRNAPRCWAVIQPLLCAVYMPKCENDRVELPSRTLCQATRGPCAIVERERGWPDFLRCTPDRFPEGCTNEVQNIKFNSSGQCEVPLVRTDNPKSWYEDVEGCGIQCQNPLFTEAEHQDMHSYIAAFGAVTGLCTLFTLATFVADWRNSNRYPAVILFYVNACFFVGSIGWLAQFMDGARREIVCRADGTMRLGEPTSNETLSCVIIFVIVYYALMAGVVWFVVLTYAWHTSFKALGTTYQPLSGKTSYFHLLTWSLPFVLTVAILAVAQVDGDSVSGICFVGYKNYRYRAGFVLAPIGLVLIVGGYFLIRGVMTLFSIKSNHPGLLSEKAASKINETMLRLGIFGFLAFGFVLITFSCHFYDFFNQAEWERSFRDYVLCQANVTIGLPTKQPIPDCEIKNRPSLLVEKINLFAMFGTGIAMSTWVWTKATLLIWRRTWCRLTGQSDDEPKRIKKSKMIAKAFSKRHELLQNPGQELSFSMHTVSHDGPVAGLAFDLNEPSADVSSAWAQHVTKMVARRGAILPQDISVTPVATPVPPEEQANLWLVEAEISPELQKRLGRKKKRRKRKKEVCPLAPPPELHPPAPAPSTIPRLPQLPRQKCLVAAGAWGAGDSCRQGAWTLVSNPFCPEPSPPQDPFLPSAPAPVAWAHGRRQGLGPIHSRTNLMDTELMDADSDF
Assay: Smoothened (SMO) binding fluorescence polarisation assay (BODIPY-cyclopamine competition)
Conditions: SMO binding FP assay versus C3H10T1/2 cellular assay
Experimental: Standard Protocol for Smoothened (SMO) Binding Fluorescence Polarisation Assay. The assay measures the ability of the test compounds to compete with a fluorescently-labelled version of the known ligand, cyclopamine, for binding to SMO. The fluorescent tag used is BODIPY (boron dipyrromethene). […] The plate is sealed and stored in the dark at room temperature for 24 hours prior to measurement of the fluorescence polarisation signal on a Perkin Elmer Envision multi-label reader. […]
MEASURED PROPERTY: Ratio of potency in SMO binding assay to potency in C3H10T1/2 cellular assay

I: Cc1noc(C)c1CNC(=O)C1CC(S(=O)(=O)N2CCC(c3c[nH]c4ncccc34)CC2)C1 (stereo not drawn) [Compound 284]
II: O=C(OC[C@H]1CCCO1)N1CC(S(=O)(=O)N2CCC(c3c[nH]c4ncccc34)CC2)C1 [Compound 162]
III: CN(C)c1ccc(C2CCN(S(=O)(=O)C3CCN(C(=O)OC(C)(C)C)CC3)CC2)cc1 [Compound 112]
IV: C[C@](O)(C(=O)N1CC(S(=O)(=O)N2CCC(c3c[nH]c4ncccc34)CC2)C1)C(F)(F)F [Compound 388]
List by increasing Ratio of potency in SMO binding assay to potency in C3H10T1/2 cellular assay. Submit the labels in the order that the ranking request calls for. I, IV, II, III
(I: 2.3, IV: 5.4, II: 20, III: 42)
